B1: FBXO39 (parent)
chain: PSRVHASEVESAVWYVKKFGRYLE

- Variants of: B1
- experimentSummary: protein stability index of a GFP-peptide fusion (GPS, HEK-293T) (PSI 1-6); higher = more stable;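 further: lentivirally expressed fusions sorted by FACS into six bins by GFP to DsRed ratio, PSI derived from sequencing read proportions per bin multiplied by bin number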
- runConditions: c terminus: a fixed tail appended
readoutKind: protein stability index
One number for each entry.

sequence: PSRVHASEVESAVWYVLKFGRYLE [K17L]
measurement: 2.52
--
sequence: PSRVHASEVESAVWYVKKFRRYLE [G20R]
measurement: 2.1
--
sequence: VSRVHASEVESAVWYVKKFGRYLE [P1V]
measurement: 1.7

Working through the 8 variants below one at a time, give protein stability index for each.
1. PSAVHASEVESAVWYVKKFGRYLE [R3A]
2. PSRVCASEVESAVWYVKKFGRYLE [H5C]
3. PSRVHAHEVESAVWYVKKFGRYLE [S7H]
4. PSRVHASEMESAVWYVKKFGRYLE [V9M]
5. PSRVHASEVESEVWYVKKFGRYLE [A12E]
6. PSRVHASEVSSAVWYVKKFGRYLE [E10S]
7. PSRYHASEVESAVWYVKKFGRYLE [V4Y]
8. PSRVHASEVESAVWYVKKFFRYLE [G20F]

[2.04, 1.61, 2.24, 1.92, 3.02, 2.51, 1.34, 1.55]

# batch: return protein stability index for each of the 3 variants below
1. PSRVHASEVESACWYVKKFGRYLE [V13C]
2. PIRVHASEVESAVWYVKKFGRYLE [S2I]
3. PSRVHASEVESAVWAVKKFGRYLE [Y15A]

1.95
2.33
2.07

For every record below, what is its protein stability index?
1. PSRVHASEVESAVWYVNKFGRYLE [K17N]
2. PSRVKASEVESAVWYVKKFGRYLE [H5K]
3. PSRVHASEVEQAVWYVKKFGRYLE [S11Q]
4. PSRVHASEVESAQWYVKKFGRYLE [V13Q]
5. HSRVHASEVESAVWYVKKFGRYLE [P1H]
6. PSRVHQSEVESAVWYVKKFGRYLE [A6Q]

1: 2.82; 2: 1.4; 3: 1.64; 4: 2.73; 5: 2.06; 6: 2.11

# batch: return protein stability index for each of the 2 variants below
1. NSRVHASEVESAVWYVKKFGRYLE [P1N]
2. PSRVHASEVESAIWYVKKFGRYLE [V13I]

1.72
1.61
